system: Candida albicans; assay: In vitro antifungal activity against Candida albicans was evaluated by measuring the diameter of zone of inhibition; NS denotes no significant inhibition; type: functional, organism-based; note: test concentration or dose not given here
ENDPOINT LABEL: Inhibition

SMILES REPRESENTATION: Cc1c(C(=O)O)nnc2c3c(-c4ccccc4)c(-c4ccccc4)nnc3nn12
ENDPOINT LABEL: Inhibition
MEASURED RESULT: No inhibition

SMILES REPRESENTATION: NNC(=O)c1nnc2c3c(-c4ccccc4)c(-c4ccccc4)nnc3nn2c1-c1ccccc1
ENDPOINT LABEL: Inhibition
MEASURED RESULT: No inhibition

SMILES REPRESENTATION: C/C(=N\NC(N)=O)c1nnc2c3c(-c4ccccc4)c(-c4ccccc4)nnc3nn2c1C
ENDPOINT LABEL: Inhibition
MEASURED RESULT: No inhibition

SMILES REPRESENTATION: O=C(NNc1ccccc1)c1nnc2c3c(-c4ccccc4)c(-c4ccccc4)nnc3nn2c1-c1ccccc1
ENDPOINT LABEL: Inhibition
MEASURED RESULT: No inhibition

SMILES REPRESENTATION: Cc1c(C(=O)N/N=C/c2cccn2C)nnc2c3c(-c4ccccc4)c(-c4ccccc4)nnc3nn12
ENDPOINT LABEL: Inhibition
MEASURED RESULT: No inhibition

SMILES REPRESENTATION: Cc1cnnc2c3c(-c4ccccc4)c(-c4ccccc4)nnc3nn12
ENDPOINT LABEL: Inhibition
MEASURED RESULT: No inhibition

SMILES REPRESENTATION: O=C(O)c1nnc2c3c(-c4ccccc4)c(-c4ccccc4)nnc3nn2c1-c1ccccc1
ENDPOINT LABEL: Inhibition
MEASURED RESULT: No inhibition

SMILES REPRESENTATION: Cc1c(C(=O)NNC(N)=O)nnc2c3c(-c4ccccc4)c(-c4ccccc4)nnc3nn12
ENDPOINT LABEL: Inhibition
MEASURED RESULT: No inhibition

SMILES REPRESENTATION: Cc1ccc(/C=N/NC(=O)c2nnc3c4c(-c5ccccc5)c(-c5ccccc5)nnc4nn3c2C)o1
ENDPOINT LABEL: Inhibition
MEASURED RESULT: No inhibition
